biological target: Zven1 receptor on Wky12-22 cells (rat); test: saturation binding of I125-radiolabeled Zven1 to Wky12-22 cell monolayers at 4 C, two-site nonlinear regression; low affinity site
assay.endpoint: Kd (nM)
Return type: number; implicit unit nM.

Data request: Dear colleague, I am looking for the recorded Kd of the following binder: Zven1 protein produced in baculovirus with a C-terminal Glu-Glu tag (ligand) AVITGACDKDSQCGGGMCCAVSIWVKSIRICTPMGKLGDSCHPLTRKVPFFGRRMHHTCPCLPGLACLRTSFNRFICLAQKGLEYMPMD
Data returned: 31
